Target: DNA dC->dU-editing enzyme APOBEC-3G (Homo sapiens);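 note: Dose-response counterscreen measuring inhibition of APOBEC3G DNA deaminase activity, run while confirming APOBEC3A inhibitors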
Sequence (Q9HC16 whole entry): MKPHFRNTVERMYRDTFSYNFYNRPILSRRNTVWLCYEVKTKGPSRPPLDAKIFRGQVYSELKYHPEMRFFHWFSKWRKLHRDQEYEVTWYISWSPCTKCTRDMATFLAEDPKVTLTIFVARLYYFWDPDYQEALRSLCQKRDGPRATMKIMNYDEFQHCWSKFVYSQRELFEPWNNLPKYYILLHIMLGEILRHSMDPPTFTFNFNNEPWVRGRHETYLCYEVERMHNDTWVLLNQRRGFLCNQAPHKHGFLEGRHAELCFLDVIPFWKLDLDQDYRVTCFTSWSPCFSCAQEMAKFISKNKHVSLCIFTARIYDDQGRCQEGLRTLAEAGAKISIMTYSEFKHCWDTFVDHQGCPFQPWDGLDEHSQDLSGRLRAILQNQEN
Type: functional
Active and inactive are the calls of the source.
For each of the compounds below, state its IC50.

Worked set:
Cn1nc([N+](=O)[O-])nc1S(C)(=O)=O = 65.5 µM (active)
COC(=O)C1=C(C)N(Cc2ccccc2)C(=NCC(C)C)N[C@H]1c1ccccc1 = 4.17 µM (active)
CCN1CCN(S(=O)(=O)c2ccc(Cl)c(C(=O)N(C)C(c3ccccc3)c3ccccc3)c2)CC1 = 5.67 µM (active)

Asked: Notebook entry, DNA dC->dU-editing enzyme APOBEC-3G (Homo sapiens) assay: IC50 of `COC(=O)Cn1cc(/C=C/c2cc[n+](C)cc2)c2ccccc21` = ?
Given back: 3.58 µM (active)
